# Experimental target: Protein AF-9 (Homo sapiens)
# Test name: AF9 binding to AF4 blockers, potency – biochemical, cherry-picked samples, plate reader, dose response (AID 720495)
# Setup conditions: biochemical protein-protein interaction assay
Inconclusive results are not listed.
Value type: AC50

CN[C@H]1C[C@H]2c3[nH]c4ccc(-c5cccc(C)c5)cc4c3CCN2C[C@H]1[C@H](C)O :: 6.97 µM
COC1=C(Nc2ccc(O)cc2)C(=O)c2ccccc2C1=O :: 9.8 µM
CN(C)CCNC(=O)c1cccc(-c2cnc3c(NC=O)cc(/C=C/c4ccccc4)cn23)c1 :: 0.523 µM
CCc1cccc(NC(=O)CCCCCC2NC(=O)NC2C)c1 (configuration not stated) :: < 0.08 µM
COc1cc(Nc2c3ccccc3nc3ccccc23)cc(OC)c1OC :: 0.234 µM

// lookup AC50 for "CCOc1ccc(NCc2cccn2-c2nnc(N3CCC(C(=O)NCCCN4CCCCC4)CC3)s2)cc1"
5.94 µM

// lookup AC50 for "O=C1c2ccccc2-c2onc3ccc(N4CCCC4)c1c23"
5.49 µM

// lookup AC50 for "C[C@@H]1NC(=O)N[C@@H]1CCCCCC(=O)O"
< 0.08 µM

// lookup AC50 for CCCN(CC1CC1)c1cc2c(c3c1ccn3C)C1CCC2C1 (configuration not stated)
7.79 µM

====

# Experimental target: UniProtKB P42568
# Test name: AF9 binding to AF4 blockers, potency – biochemical, cherry-picked samples, plate reader, dose response (AID 720495)
# Setup conditions: biochemical protein-protein interaction assay
Results filed as inconclusive are left out.
Value type: AC50

Reference set (6 entries):
CCN(CC)CCOc1ccc2c(c1)C(=NNC(=O)c1ccccn1)c1cc(OCCN(CC)CC)ccc1-2 :: 3.66 µM
COc1cc(OC)c2c(c1C(CCN1CCOCC1)c1ccc(N(C)C)cc1)OC(=O)CC2c1ccc(N(C)C)cc1 (stereo not given) :: 10.7 µM
CN1CCN(C(c2ccc(Cl)cc2)c2cc(Cl)c3cccnc3c2O)CC1 (stereo not given) :: 0.984 µM
O=C1C(Cl)=CC(=Nc2ccc(O)cc2)C=C1Cl :: 11.4 µM
CN(C)c1cccc2c(C=C(C#N)C#N)ccc(N(C)C)c12 :: 1.04 µM
Cc1ccnc(NC(c2cccnc2)c2ccc3cccnc3c2O)c1 (stereo not given) :: 0.808 µM

// lookup AC50 for "COc1ccc2[nH]c(C)c(CCNCc3cn(C)c4ccccc34)c2c1"
6.85 µM

// lookup AC50 for C#CCOCCOCCOCCNc1nc(N2CCN(C(=O)[C@H](CCCCN)n3cc(CN)nn3)CC2)nc(N2CCN(C(=O)[C@H](CCCN=C(N)N)n3cc(C(N)[C@H](C)CC)nn3)CC2)n1 (stereo not given in full)
2.81 µM

// lookup AC50 for "O=C1c2cccc(NCCNCCO)c2C(=O)c2cccc(NCCNCCO)c21"
6.88 µM

====

# Experimental target: Protein AF-9 (Homo sapiens) (UniProt P42568)
# Sequence (P42568 whole entry, looked up): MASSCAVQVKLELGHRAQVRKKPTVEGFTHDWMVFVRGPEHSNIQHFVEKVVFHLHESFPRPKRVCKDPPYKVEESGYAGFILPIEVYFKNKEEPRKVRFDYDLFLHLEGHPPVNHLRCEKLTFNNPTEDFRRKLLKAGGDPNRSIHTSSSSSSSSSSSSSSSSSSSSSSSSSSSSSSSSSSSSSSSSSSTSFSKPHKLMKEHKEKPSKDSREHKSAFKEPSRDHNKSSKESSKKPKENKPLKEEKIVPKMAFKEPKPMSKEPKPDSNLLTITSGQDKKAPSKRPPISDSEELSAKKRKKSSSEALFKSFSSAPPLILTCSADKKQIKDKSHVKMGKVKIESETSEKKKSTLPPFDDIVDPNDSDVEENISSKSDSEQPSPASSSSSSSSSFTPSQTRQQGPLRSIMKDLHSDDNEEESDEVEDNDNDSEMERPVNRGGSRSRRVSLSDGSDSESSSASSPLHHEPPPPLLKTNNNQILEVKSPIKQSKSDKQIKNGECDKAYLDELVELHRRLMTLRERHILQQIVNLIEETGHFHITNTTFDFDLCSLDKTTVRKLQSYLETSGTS
# Test name: AF9 binding to AF4 blockers, potency – biochemical, cherry-picked samples, plate reader, dose response (AID 720495)
# Setup conditions: biochemical protein-protein interaction assay, at 10 µM (top of the series)
Inconclusive results are not listed. Calls of active or inactive are those of the source. The rule behind the calls is not given here.
Value type: activity change, negative = inhibition

C/C(=N\Nc1nc2ccccc2[nH]1)c1ccc2c(c1)OCO2 :: inactive
O=[N+]([O-])c1cc(/C=N/Nc2nc3ccccc3[nH]2)c(O)cc1O :: inactive
CCN(CC)c1ccc(N=Cc2ccc([N+](=O)[O-])o2)cc1 :: inactive
CN=c1scc(-c2ccccc2F)n1/N=C(\C)c1cccnc1 :: inactive
Cn1cc(C(=O)N/N=C/c2c(O)ccc3ccccc23)ccc1=O :: inactive

Moving on to the next molecule.
// lookup activity change, negative = inhibition for O=C(NC1CCCCC1)C(c1cccnc1)N(C(=O)CCl)c1cccc(Cl)c1 (stereo unspecified)
inactive
